- Test system: Torsin-1A-interacting protein 1 (Homo sapiens)
- Assay procedure: LAP1 binders from COS7 cell lysate, primary screen, small-molecule microarray, 635/667 nm fluorescence (AID 1116)
- Cond: COS7-hLAP1 lysate binding, 635 nm fluorescence, higher = more signal
Listed here: items and their measured composite z-score.
Just the number, please.

Worked examples, 3 compounds total:
Given item CN1C(=O)C2C(C1=O)C1C=C(c3ccc(CO)cc3)C2C(c2cccs2)N1C (stereo unspecified) , the value recorded as its composite z-score is 2.17

Given item C=CCNC(=O)[C@@H]1[C@H]2C(=O)O[C@H](c3ccccc3)[C@H](c3ccccc3)N2[C@H](c2ccc(O)cc2)[C@@]12C(=O)Nc1ccc(C#CC3(O)CCCCCC3)cc12 , the value recorded as its composite z-score is 0.824

Given item C=CCC(OC(C)=O)[C@@H]1[C@@H](N(Cc2ccc(-c3ccccc3)cc2)C(=O)c2cccc3ccccc23)c2cc(OCCCO)ccc2N1C(=O)c1ccc2ccccc2c1 (stereo partly specified) , the value recorded as its composite z-score is -0.0482

Further cases:
Given item COCCCN1C(=O)[C@@]2(Cc3ccccc31)c1ccccc1C(=O)N(Cc1ccccc1OC)[C@H]2c1ccc(CO)cc1 , the value recorded as its composite z-score is 0.145

Given item C=CC[C@@]12N=C(c3ccc(OCCCO)cc3)O[C@@H]1c1ccccc1N(Cc1ccccc1)C2=O , the value recorded as its composite z-score is 1.16

Given item CCCCC(O)C1C=CC2C(=O)N(C)C(=O)C2N1Nc1ccccc1 (stereo unspecified) , the value recorded as its composite z-score is 1.02

Given item C=CCN1C(=O)[C@]2(O[C@H](CCO)[C@@H]([Si](C)(C)c3ccc(OC)cc3)[C@@H]2C)c2ccccc21 , the value recorded as its composite z-score is -0.547

Given item CC(C)=CCN(C(=O)C#Cc1ccccc1)[C@H](CO)c1ccccc1 , the value recorded as its composite z-score is 0.58

Given item C=CCNC(=O)[C@H]1[C@@H]2C(=O)O[C@@H](c3ccccc3)[C@@H](c3ccccc3)N2[C@@H](c2ccc(O)cc2)[C@]12C(=O)Nc1ccc(C#CC3=CCCCC3)cc12 , the value recorded as its composite z-score is 1.11

Given item CN(C)CCCNC(=O)[C@@H]1c2ccccc2C(=O)N(C2Cc3ccccc3C2)[C@H]1c1ccc(CO)cc1 , the value recorded as its composite z-score is 0.814

Given item COCCOC(=O)N1C(=O)[C@@]2(c3cc(C#CC4(O)CCCCCC4)ccc31)[C@H](c1ccc(OCCO)cc1)N1[C@H](c3ccccc3)[C@H](c3ccccc3)OC(=O)[C@H]1[C@@H]2C(N)=O , the value recorded as its composite z-score is 1.73
